Test system: S. paratyphi 11737
measured-endpoint: log10(MIC) (log10 of the value in µg/mL)
// stored as log10 of MIC expressed in µg/mL

Illustrative cases are given below, each with its answer.
entry-smiles | log10(MIC)
Nc1nc(N)c2c(ccc3c2ccn3CC=Cc2ccccc2)n1 | 1.19
Nc1ccc(-n2ccc3c4c(N)nc(N)nc4ccc32)cc1 | -0.31

Request: Recall the recorded log10(MIC) for `N#Cc1ccccc1Cn1ccc2c3c(N)nc(N)nc3ccc21` with S. paratyphi 11737 and state it.
Response: -0.31

Request: Now this one: `Nc1cccc(Cn2ccc3c4c(N)nc(N)nc4ccc32)c1`
Response: -0.01

Request: Likewise for `Nc1nc(N)c2c(ccc3c2ccn3-c2ccccc2C(F)(F)F)n1` ?
Response: -0.01

Request: Also need `Nc1nc(N)c2c(ccc3c2ccn3Cc2ccc(Cl)c(Cl)c2)n1` , thanks.
Response: 1.50

Request: Cool, now `CSc1ccc(Cn2ccc3c4c(N)nc(N)nc4ccc32)cc1`
Response: 0.59

----------
Test system: S. paratyphi 11737
Doc: threshold 3 µg/mL (exclusive). Items with MIC beneath it return 1; others return -1.

entry-smiles | assigned-category
Nc1nc(N)c2c(ccc3c2ccn3-c2ccc([N+](=O)[O-])cc2[N+](=O)[O-])n1 | -1

Request: Bench note: check whether `Cc1cc2c3c(N)nc(N)nc3ccc2n1Cc1cccc(C#N)c1` shows MIC below 3 µg/mL
Response: -1

Request: Record: `CCC(=O)c1ccc(-n2ccc3c4c(N)nc(N)nc4ccc32)cc1`
Response: -1

Request: For `Cc1ccc(Cn2ccc3c4c(N)nc(N)nc4ccc32)c(C)c1` then?
Response: -1

----------
System: lymphocytic leukemia P-388
Assay: Activity in mice against lymphocytic leukemia P-388
Assay type: in vivo
Settings: Mus musculus, P388, ip; mice, I.P., 10 mg/kg; read-out: T/C
measured-endpoint: response vs control in vivo at 10 mg/kg (%)
Write the number in % without appending the unit.

Request: Using the record for CS(=O)(=O)c1ccc(Cn2ccc3c4c(N)nc(N)nc4ccc32)cc1 [Example 63] , report its response vs control in vivo at 10 mg/kg.
Response: 136

Request: Query Nc1nc(N)c2c(ccc3c2ccn3Cc2ccc3ccccc3n2)n1 [Example 50] next
Response: 145

Request: Next: COc1ccc(Cn2ccc3c4c(N)nc(N)nc4ccc32)cc1OC [Example 37]
Response: 174

Request: // next record CCOC(=O)c1ccc(Cn2ccc3c4c(N)nc(N)nc4ccc32)cc1 [Example 17]
Response: 141

Request: Param item: Nc1nc(N)c2c(ccc3c2ccn3Cc2ccsc2)n1 [Example 41]
Response: 147

----------
Parameter log10(MIC), tested on S. aureus 53-180, listed per item.
Parameter value (number): base-10 log of MIC in µg/mL.

Solved cases below.
entry-smiles | measured-endpoint | reported-result
CCCCCCCn1ccc2c3c(N)nc(N)nc3ccc21 | log10(MIC) | 1.19
Nc1nc(N)c2c(ccc3c2ccn3-c2ccc([N+](=O)[O-])cc2)n1 | log10(MIC) | 0.59
Nc1nc(N)c2c(ccc3c2ccn3Cc2ccc3ccccc3c2Br)n1 | log10(MIC) | 1.19
Nc1nc(N)c2c(ccc3c2ccn3Cc2ccccc2)n1 | log10(MIC) | 0.29
Cn1ccc2c3c(N)nc(N)nc3ccc21 | log10(MIC) | 0.89

Next compound, please.
Request: Returns the measured log10(MIC) for the input compound. Input: `Nc1nc(N)c2c(ccc3c2ccn3Cc2c(Cl)cccc2Cl)n1`
Response: 2.40

----------
System: S. aureus 53-180
measured-endpoint: MIC

Recorded MIC, per entry:
entry-smiles | experimental-target | reported-result
Nc1nc(N)c2c(ccc3c2ccn3Cc2cccc3ccccc23)n1 | S. aureus 53-180 | 0.976 µg/mL
Cc1cc2c3c(N)nc(N)nc3ccc2n1Cc1ccc(C#N)cc1 | S. aureus 53-180 | 0.976 µg/mL
Nc1nc(N)c2c(ccc3c2ccn3-c2ccccc2[N+](=O)[O-])n1 | S. aureus 53-180 | 0.244 µg/mL
Nc1nc(N)c2c(ccc3c2ccn3-c2ccc([N+](=O)[O-])cc2[N+](=O)[O-])n1 | S. aureus 53-180 | 0.0076 µg/mL

Would you kindly look at the next entry?
Request: Please report the recorded MIC for `Nc1nc(N)c2c(ccc3c2ccn3Cc2ccccc2Cl)n1` .
Response: 0.976 µg/mL

----------
Assay: Antimalarial blood schizonticidal test in mice
Type: in vivo, Plasmodium berghei (infected ICR/HA Swiss mice)
Conditions: mouse, in vivo, sc, single dose, infected mice; highest dose with no deaths for any reason; read-out: Highest Non-Lethal Dose
Kind request: treat 80 mg/kg as inclusive, so MTD at 80 mg/kg or higher is true, anything lower is false.

Some entries whose results are on file:
entry-smiles | assigned-category
COc1cc(Cn2ccc3c4c(N)nc(N)nc4ccc32)cc(OC)c1OC | true
Cc1cccc(Cn2ccc3c4c(N)nc(N)nc4ccc32)c1 | true
N#Cc1cccc(Cn2ccc3c4c(N)nc(N)nc4ccc32)c1 | false
Nc1nc(N)c2c(ccc3c2ccn3Cc2ccc(Cl)cc2)n1 | false
Nc1nc(N)c2c(ccc3c2ccn3Cc2ccc(OC(F)(F)F)cc2)n1 | false
Nc1nc(N)c2c(ccc3c2ccn3Cc2ccccc2)n1 | true
CC(=O)c1ccc(Cn2ccc3c4c(N)nc(N)nc4ccc32)cc1 | false

Request: Please indicate if the recorded MTD for `Nc1nc(N)c2c(ccc3c2ccn3Cc2ccccc2Cl)n1` meets or exceeds 80 mg/kg.
Response: true

----------
// reported response vs control in vivo at 10 mg/kg per item
Tested on: lymphocytic leukemia P-388
Test: Activity in mice against lymphocytic leukemia P-388
Format: in vivo
Conditions: Mus musculus, P388, ip; mice, I.P., 10 mg/kg; read-out: T/C
# number only, unit % dropped from output

These solved cases illustrate the format of a correct answer.
compound | unit | reported-result
Nc1cccc(Cn2ccc3c4c(N)nc(N)nc4ccc32)c1 [Example 62] | % | 165
Cc1ccc(Cn2ccc3c4c(N)nc(N)nc4ccc32)cc1C [Example 25] | % | 139

Request: Need response vs control in vivo at 10 mg/kg, item Cc1ccc(C)c(Cn2ccc3c4c(N)nc(N)nc4ccc32)c1 [Example 23]
Response: 142

----------
Reported log10(MIC), S. aureus 53-180.
A difference of one corresponds to tenfold MIC; all values are log10 with MIC in mg/L.

Examples from the recorded data:
entry-smiles | log10(MIC)
Nc1nc(N)c2c(ccc3c2ccn3CC2CCCCC2)n1 | 0.59
N#Cc1ccc(Cn2ccc3c4c(N)nc(N)nc4ccc32)cc1 | -0.91
Nc1nc(N)c2c(ccc3c2ccn3Cc2cscn2)n1 | -0.61
Nc1nc(N)c2c(ccc3c2ccn3-c2nc3ccccc3s2)n1 | 2.10

Request: Fill in: log10(MIC) of `Nc1nc(N)c2c(ccc3c2ccn3Cc2ccc3ccccc3n2)n1` is ___
Response: -0.31

----------
These records show MIC for S. paratyphi 11737.
Write the value in µg/mL as a bare number.

entry-smiles | experimental-target | unit | reported-result
Nc1nc(N)c2c(ccc3c2ccn3Cc2cscn2)n1 | S. paratyphi 11737 | µg/mL | 0.976

Request: Could you share what MIC was measured for `N#Cc1ccccc1-n1ccc2c3c(N)nc(N)nc3ccc21` , tested on S. paratyphi 11737?
Response: 0.122

Request: And what about the compound `Nc1nc(N)c2c(ccc3c2ccn3-c2ccccn2)n1` ?
Response: 0.976

Request: Entry to check: `COc1ccc(Cn2ccc3c4c(N)nc(N)nc4ccc32)cc1OC`
Response: 1.95

Request: Record: `COc1cccc(Cn2ccc3c4c(N)nc(N)nc4ccc32)c1`
Response: 7.81

Request: Now the same for `Nc1nc(N)c2c(ccc3c2ccn3Cc2cccc(F)c2)n1`
Response: 0.488

Request: Repeat with `Nc1nc(N)c2c(ccc3c2ccn3Cc2cccc3ccccc23)n1`
Response: 62.5

Request: And the next one, `Cc1ccc(C)c(Cn2ccc3c4c(N)nc(N)nc4ccc32)c1` ?
Response: 125

Request: Next record, please: `Nc1nc(N)c2c(ccc3c2ccn3Cc2cccc(C(F)(F)F)c2)n1`
Response: 7.81

Request: Next compound up: `Nc1nc(N)c2c(ccc3c2ccn3Cc2ccncc2)n1`
Response: 0.488

Request: Entry `Nc1nc(N)c2c(ccc3c2ccn3Cc2ccc(OC(F)(F)F)cc2)n1` please
Response: 62.5

Request: Please give the result for `Nc1nc(N)c2c(ccc3c2ccn3-c2ccnc3ccccc23)n1` too.
Response: 0.976

Request: Next record, please: `Nc1nc(N)c2c(ccc3c2ccn3Cc2cccs2)n1`
Response: 0.244

Request: Entry to check: `COc1ccccc1Cn1ccc2c3c(N)nc(N)nc3ccc21`
Response: 7.81

----------
Let's go through some recorded MIC values for S. paratyphi 11737 together.
Kindly provide the numeric value in µg/mL only, without the unit symbol.

A selection of reference data follows.
entry-smiles | unit | MIC
Nc1nc(N)c2c(ccc3c2ccn3Cc2cccnc2)n1 | µg/mL | 0.488
Cc1cccc(Cn2ccc3c4c(N)nc(N)nc4ccc32)c1 | µg/mL | 1.95
Cc1cc(C)cc(Cn2ccc3c4c(N)nc(N)nc4ccc32)c1 | µg/mL | 15.6
Nc1nc(N)c2c(ccc3c2ccn3CCCc2ccccc2)n1 | µg/mL | 250
Nc1nc(N)c2c(ccc3c2ccn3Cc2ccc(F)cc2)n1 | µg/mL | 0.488

Okay, now this molecule:
Request: S. paratyphi 11737 / MIC / `Nc1nc(N)c2c(ccc3c2ccn3Cc2ccc(C(F)(F)F)cc2)n1` : value?
Response: 15.6
